target: T1, JCV VP1 VLP (JC virus (JCV), Mad-1 strain, UniProt P03089 1-354); assay: direct ELISA, plate coated with antigen at 5 µg/ml in reassociation buffer (VLP); EC50 by non-linear regression (GraphPad Prism)
T1 construct: also called JCV VP1 VLPs; JCV VP1 (coating with reassociation buffer)
metric: EC50 (pM)

binder	metric	obs-value
NI-307.29B1 (antibody, V domains shown) VH: EVQLVESGGGLVKPGGSLRLSCAASGITFQYYAMNWVRQAPGKGLEWVSSIGGRGDTTYYTDSVKGRFTISRDNSKSTLYLQMNSLRAEDTAVYYCAKEPFDSSGDHRGVFDYWGQGTLVTVSS VL: QSVVTQPPSVSGAPGQRVTISCAGSRSNIGAGYDVNWYQQLPRTAPKLLIYDNTRRPSGVPARFSGSKSGSSASLTITGLQAEDEADYYCQSYDSKLNKVFGGGTKLTVL	EC50	76
